# Test system: recombinant NL-Rluc virus (NL4-3 with Renilla Luciferase gene) in MT-2 cells
# assay text: Inhibition of HIV replication (NL-Rluc luciferase reporter virus, MT-2 cells)
# Type: cell-based, human immunodeficiency virus (HIV)
# run conditions: NL43, 120 h, read-out: Activity
Where a name gives a salt, the structure may show the parent alone.
measured quantity: EC50

> print(dat)
                                   compound  measured.quantity     result
1  Cc1nc2cc(-c3ccccc3)nn2c(-c2ccc(O)cc2)c1C(OC(C)(C)C)C(=O)O (stereo not shown)               EC50  > 1000 nM
2  Cc1ccc(F)c(-c2c(C(OC(C)(C)C)C(=O)O)c(C)nc3cc(-c4ccccc4)nn23)c1 (stereo not shown)               EC50  > 1000 nM
3  Cc1nc2c(-c3cc(F)c4c(c3C)CCCO4)c(-c3ccccc3)nn2c(-c2cc(F)c3c(c2C)CCCO3)c1C(OC(C)(C)C)C(=O)O (stereo not shown)               EC50  > 1000 nM
4  Cc1ccc(-c2c(C(OC(C)(C)C)C(=O)O)c(C)nc3c(-c4cccc(Cl)c4)cnn23)c(Cl)c1 (stereo not shown)               EC50  > 1000 nM
5  Cc1nc2cc(-c3ccccc3)nn2c(-c2ccccc2OC(F)(F)F)c1C(OC(C)(C)C)C(=O)O (stereo not shown)               EC50  > 1000 nM
6  Cc1ccc(-c2cc3nc(C)c(C(OC(C)(C)C)C(=O)O)c(-c4cc(F)c5c(c4C)CCCO5)n3n2)cc1 (stereo not shown) [Example 46, TFA salt]               EC50   < 100 nM

// next entry
EC50 for Cc1nc2cc(-c3cccc(-c4cnc5ccccc5c4)c3)nn2c(-c2cc(F)c3c(c2C)CCCO3)c1[C@H](OC(C)(C)C)C(=O)O is < 100 nM

====

# System: recombinant NL-Rluc virus (NL4-3 with Renilla Luciferase gene) in MT-2 cells
# assay text: Inhibition of HIV replication (NL-Rluc luciferase reporter virus, MT-2 cells)
# Assay type: cell-based, human immunodeficiency virus (HIV)
# run conditions: NL43, 120 h, read-out: EC50 μM
Where a name gives a salt, the structure may show the parent alone.
Please provide measured EC50 for the entries that follow.
Answers are plain numbers, in µM.

Below: 3 compounds and their reported EC50.
> print(dat)
                                   compound  measured.quantity  numeric.result
1  Cc1ccc(-c2c([C@H](OC(C)(C)C)C(=O)O)c(C)nc3cc(-c4cccc(Cl)c4)nn23)cc1               EC50            0.88
2  Cc1nc2cc(-c3cccc(Oc4ccccc4)c3)nn2c(-c2cc(F)c3c(c2C)CCCO3)c1C(OC(C)(C)C)C(=O)O (stereo not shown) [Example 97, TFA salt]               EC50            0.06
3  Cc1nc2c(-c3cccc(Cl)c3)c(-c3ccccc3)nn2c(-c2cc(F)c3c(c2C)CCCO3)c1[C@H](OC(C)(C)C)C(=O)O               EC50               1

// next entry
EC50 for Cc1ccc(-c2c(C(OC(C)(C)C)C(=O)O)c(C)nc3ccnn23)cc1 (stereo not shown) [Example 42, TFA salt] is 4.5
